- Target Or System: Androgen receptor (Homo sapiens)
- Test Protocol: qHTS assay to identify small molecule agonists of the androgen receptor (AR) signaling pathway in the presence of an antagonist (AID 1259381); note: nearly all actives have a fitted effect of over 15% in size
- Test Settings: MDA-kb2 MMTV-luciferase, AR agonist + nilutamide, 16 h; series mostly up to 92.4 µM
Active and inactive are the calls of the source. Calls come from the whole dose curve.
Classes used: class 1 for active, class 0 for inactive

Molecule: CC(=O)N(O)CCCCCNC(=O)CCC(=O)N(O)CCCCCNC(=O)CCC(=O)N(O)CCCCCN
Target Or System: Androgen receptor (Homo sapiens)
Class Name: class 0
//
Molecule: CC(C)c1ccc2c(C(C)C)cc(C(C)C)c(S(=O)(=O)O)c2c1
Target Or System: Androgen receptor (Homo sapiens)
Class Name: class 0
//
Molecule: O=C(O)COC(=O)Cc1ccccc1Nc1c(Cl)cccc1Cl
Target Or System: Androgen receptor (Homo sapiens)
Class Name: class 0
//
Molecule: O=C(O)c1cccc(N(Cc2cccnc2)c2ccc(OC(F)F)c(OC(F)F)c2)c1
Target Or System: Androgen receptor (Homo sapiens)
Class Name: class 0
//
Molecule: C1CCC2OC2C1 (configuration not stated)
Target Or System: Androgen receptor (Homo sapiens)
Class Name: class 0
//
Molecule: COc1ccccc1OC(=O)Oc1ccccc1OC
Target Or System: Androgen receptor (Homo sapiens)
Class Name: class 0
//
Molecule: O=C(O)Cc1sc(-c2ccccc2)nc1-c1ccc(Cl)cc1
Target Or System: Androgen receptor (Homo sapiens)
Class Name: class 0
//
Molecule: O=C1Nc2cc(Cl)ccc2Oc2ccccc21
Target Or System: Androgen receptor (Homo sapiens)
Class Name: class 0
//
Molecule: N[C@H]1C(O)O[C@H](CO)[C@H](O)[C@@H]1O (some centres not stated)
Target Or System: Androgen receptor (Homo sapiens)
Class Name: class 0
//
Molecule: Cc1cc(C)c(S(=O)(=O)O)cc1N=Nc1cc(S(=O)(=O)O)c2ccccc2c1O
Target Or System: Androgen receptor (Homo sapiens)
Class Name: class 0
//
Molecule: Nc1ccc(C(=O)Nc2ccccc2N)cc1
Target Or System: Androgen receptor (Homo sapiens)
Class Name: class 1
//
Molecule: CNCC[C@@H](Oc1ccccc1C)c1ccccc1
Target Or System: Androgen receptor (Homo sapiens)
Class Name: class 0
